test: Hepatocyte stability, rat; format: in vitro ADME; details: rat hepatocytes; read-out: Hep CLint,u rat (converted)
endpoint: CLint scaled at 1 μM

smiles_string=COC1CCN(C2CCN(c3cc(C(=O)NS(=O)(=O)N(C)C)nc4c3c(C3CCC3)nn4-c3ccc(F)cc3)CC2)CC1 endpoint="CLint scaled at 1 μM" value_observed="66.2 mL/min/kg"

----------
experiment: Plasma protein binding, rat; format: in vitro ADME; details: pH 7.4, read-out: PPB % rat (converted)
Below, each entry is listed with its recorded fraction unbound at 4 h, 5 μM.
endpoint: fraction unbound at 4 h, 5 μM

smiles_string=CN(C)S(=O)(=O)NC(=O)c1cc(N2CCC(N3CCOCC3)CC2)c2c(C3CCC3)nn(-c3ccc(F)cc3)c2n1 value_observed=0.015
smiles_string=CS(=O)(=O)NC(=O)c1cc(N2CCC(N3CCOCC3)CC2)c2c(C3CCC3)nn(-c3ccccc3)c2n1 value_observed=0.01

----------
assay: Measured pKa (potentiometric and UV methods); type: physicochemical; conditions: UV method; measured at Charles River; read-out: measured piperidine pKa
endpoint: pKa

smiles_string=COC1CCN(C2CCN(c3cc(C(=O)NS(=O)(=O)N(C)C)nc4c3c(C3CCC3)nn4-c3ccc(F)cc3)CC2)CC1 value_observed=8.51

----------
test: Intestinal permeability on Caco-2 cells; assay type: in vitro ADME, human; conditions: human, Caco-2, pH 7.4; A to B, n = 1; read-out: Caco-2 PA2B
endpoint: Papp A→B at 1 h, 10 μM (×10⁻⁶ cm/s)

molecule="COC1CCN(C2CCN(c3cc(C(=O)NS(=O)(=O)N(C)C)nc4c3c(C3CCC3)nn4-c3ccc(F)cc3)CC2)CC1 [Compound 52]" value_observed=24.5

----------
experiment: Measured pKa (potentiometric and UV methods); assay type: physicochemical; conditions: UV method; measured at Charles River; read-out: measured acylsulfonamyl pKa
endpoint: pKa

smiles_string=COC1CCN(C2CCN(c3cc(C(=O)NS(=O)(=O)N(C)C)nc4c3c(C3CCC3)nn4-c3ccc(F)cc3)CC2)CC1 value_observed=4.74
